# Test system: Aspergillus niger
# procedure_details: Antifungal activity Aspergillus niger NCIM 545 after 24 to 72 hrs by NCCLS method
# Format: functional
Activity calls are given as the source filed them. The calls are words filed in the database; no cut-off is given here.
readout_name: MIC

FC(F)(F)c1cc(/C(Cn2cncn2)=N\Nc2nc(-c3ccc(Br)cc3)cs2)cc(C(F)(F)F)c1 :: inactive
O=[N+]([O-])c1ccc(/C(Cn2cncn2)=N\Nc2nc(-c3cc(C(F)(F)F)cc(C(F)(F)F)c3)cs2)cc1 :: inactive
O=[N+]([O-])c1ccc(-c2csc(N/N=C(/Cn3cncn3)c3ccc(Br)cc3)n2)cc1 :: inactive

----------
# System: Aspergillus niger
# procedure_details: Antifungal activity Aspergillus niger NCIM 545 after 24 to 72 hrs by NCCLS method
# Assay type: functional
# Lookup of reported MIC keyed by entry
Give the number; µg/mL is assumed, so skip it.

Data point: Fc1ccc(/C(Cn2cncn2)=N\Nc2nc(-c3ccc(Cl)cc3)cs2)cc1 ; MIC = 16

Entry Clc1ccc(-c2csc(N/N=C(/Cn3cncn3)c3ccc(Br)cc3)n2)cc1 ; MIC = 32

----------
# Tested on: Bacillus subtilis
# procedure_details: Antibacterial activity Bacillus subtilis NCIM 2250 at 100 ug/disc by agar-well diffusion assay
# Format: functional
# condition_label: read-out: DIZ
readout_name: zone of inhibition at 100 µg/disc (mm)
Please respond with the number in mm and leave the unit unwritten.

Fc1ccc(-c2csc(N/N=C(/Cn3cncn3)c3ccc(Cl)cc3)n2)cc1 :: 16.8
O=C(O)c1cn(C2CC2)c2cc(N3CCNCC3)c(F)cc2c1=O :: 26.7
O=[N+]([O-])c1ccc(/C(Cn2cncn2)=N\Nc2nc(-c3ccc(F)cc3)cs2)cc1 :: 11.3
Fc1ccc(-c2csc(N/N=C(/Cn3cncn3)c3ccc(Br)cc3)n2)cc1 :: 20.3

In the following, a different compound is considered.
Note to self: zone of inhibition at 100 µg/disc recorded for Fc1ccc(-c2csc(N/N=C(/Cn3cncn3)c3cc(C(F)(F)F)cc(C(F)(F)F)c3)n2)cc1 was 9.77

----------
# System: Candida albicans
# procedure_details: Antifungal activity Candida albicans NCIM 3471 after 24 to 72 hrs by NCCLS method
# Assay type: functional
Calls of active or inactive are those of the source. The rule behind the calls is not given here.
readout_name: MIC

O=[N+]([O-])c1ccc(-c2csc(N/N=C(/Cn3cncn3)c3cc(C(F)(F)F)cc(C(F)(F)F)c3)n2)cc1 :: inactive
O=[N+]([O-])c1ccc(/C(Cn2cncn2)=N\Nc2nc(-c3cc(C(F)(F)F)cc(C(F)(F)F)c3)cs2)cc1 :: inactive
FC(F)(F)c1cc(-c2csc(N/N=C(/Cn3cncn3)c3ccc(Br)cc3)n2)cc(C(F)(F)F)c1 :: > 64 µg/mL
Fc1ccc(/C(Cn2cncn2)=N\Nc2nc(-c3ccc(F)cc3)cs2)cc1 :: 64 µg/mL

----------
# Tested on: Aspergillus niger
# procedure_details: Antifungal activity Aspergillus niger NCIM 545 after 24 to 72 hrs by NCCLS method
# Assay type: functional
// MIC lookup, one value per entry

Past entries and their recorded results:
FC(F)(F)c1cc(/C(Cn2cncn2)=N\Nc2nc(-c3cc(C(F)(F)F)cc(C(F)(F)F)c3)cs2)cc(C(F)(F)F)c1 :: 32 µg/mL
Fc1ccc(/C(Cn2cncn2)=N\Nc2nc(-c3cc(C(F)(F)F)cc(C(F)(F)F)c3)cs2)cc1 :: 64 µg/mL
Clc1ccc(/C(Cn2cncn2)=N\Nc2nc(-c3ccc(Cl)cc3)cs2)cc1 :: 32 µg/mL

Pending compound:
Record summary for Fc1ccc(-c2csc(N/N=C(/Cn3cncn3)c3ccc(Cl)cc3)n2)cc1 : reported MIC = 32 µg/mL

----------
# key: entry, value: MIC
# Test system: Aspergillus niger
# procedure_details: Antifungal activity Aspergillus niger NCIM 545 after 24 to 72 hrs by NCCLS method
# Type: functional

Value of MIC reported for the molecule O=[N+]([O-])c1ccc(/C(Cn2cncn2)=N\Nc2nc(-c3ccc(F)cc3)cs2)cc1 is > 64 µg/mL

Kindly note the recorded MIC for Brc1ccc(/C(Cn2cncn2)=N\Nc2nc(-c3ccc(Br)cc3)cs2)cc1 , which is > 64 µg/mL

Form field MIC, entry FC(F)(F)c1cc(-c2csc(N/N=C(/Cn3cncn3)c3ccc(Br)cc3)n2)cc(C(F)(F)F)c1 : > 64 µg/mL

The measurements presented in this section are drawn from ChEMBL document CHEMBL2040750.
